Attribution: ChEMBL document CHEMBL3603735

target: Neuronal acetylcholine receptor; alpha3/beta4 (Homo sapiens, UniProt P30926+P32297); assay: Agonist activity at human alpha3beta4 nAChR expressed in rat GH4C1 cells assessed as induction of peak current amplitude at holding potential of -70 mV by whole-cell patch clamp assay
Sequence (P30926 whole entry): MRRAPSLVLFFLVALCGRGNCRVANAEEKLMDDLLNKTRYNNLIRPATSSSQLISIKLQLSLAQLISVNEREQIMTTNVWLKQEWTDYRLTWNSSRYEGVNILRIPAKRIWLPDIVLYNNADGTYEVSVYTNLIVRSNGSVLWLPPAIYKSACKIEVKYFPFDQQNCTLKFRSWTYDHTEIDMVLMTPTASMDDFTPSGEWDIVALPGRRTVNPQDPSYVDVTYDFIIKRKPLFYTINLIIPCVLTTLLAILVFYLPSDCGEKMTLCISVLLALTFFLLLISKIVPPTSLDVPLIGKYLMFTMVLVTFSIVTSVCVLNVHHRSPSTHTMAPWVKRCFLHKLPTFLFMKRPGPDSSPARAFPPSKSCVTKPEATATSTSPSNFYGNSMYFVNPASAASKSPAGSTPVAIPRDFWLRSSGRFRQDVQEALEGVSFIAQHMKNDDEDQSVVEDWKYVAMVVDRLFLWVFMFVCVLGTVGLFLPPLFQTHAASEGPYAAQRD
Sequence (P32297 whole entry): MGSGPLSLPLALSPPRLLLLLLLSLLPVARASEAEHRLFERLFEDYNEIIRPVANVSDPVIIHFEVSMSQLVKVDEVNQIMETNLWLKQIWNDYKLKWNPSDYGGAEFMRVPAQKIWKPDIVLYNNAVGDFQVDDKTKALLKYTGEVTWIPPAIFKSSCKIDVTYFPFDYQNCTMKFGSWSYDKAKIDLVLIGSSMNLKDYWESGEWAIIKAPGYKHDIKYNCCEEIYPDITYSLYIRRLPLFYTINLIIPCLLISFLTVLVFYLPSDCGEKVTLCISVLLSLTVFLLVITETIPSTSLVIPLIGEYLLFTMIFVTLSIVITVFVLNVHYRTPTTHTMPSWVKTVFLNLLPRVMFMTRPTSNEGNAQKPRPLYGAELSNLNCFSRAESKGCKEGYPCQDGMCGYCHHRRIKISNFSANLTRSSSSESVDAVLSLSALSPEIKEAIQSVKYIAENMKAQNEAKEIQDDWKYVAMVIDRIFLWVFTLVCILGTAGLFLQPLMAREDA
attribute.measured: pEC50
# pEC50 is unitless: minus log10 of the molar concentration; print number only

INSERT INTO results (mol, attribute_measured, endpoint_result) VALUES
  ('CN1CCC[C@H]1COc1cccc(O)c1', 'pEC50', 5.05),
  ('CN1CCC[C@H]1[C@@H]1COc2ccc(O)cc2O1', 'pEC50', 4.77);

Next up:
Prompt: Quick one: pEC50 for CN1CC[C@H]1COc1cccc(O)c1 ?
Response: 5.04

---

Reported values of log10 of Ki for individual entries
target: Neuronal acetylcholine receptor; alpha4/beta2 (Rattus norvegicus, UniProt P09483+P12390); assay: Displacement of [3H]epibatidine from alpha4beta2 nAChR in rat cortex membranes by liquid scintillation counting method
Sequence (P09483 whole entry): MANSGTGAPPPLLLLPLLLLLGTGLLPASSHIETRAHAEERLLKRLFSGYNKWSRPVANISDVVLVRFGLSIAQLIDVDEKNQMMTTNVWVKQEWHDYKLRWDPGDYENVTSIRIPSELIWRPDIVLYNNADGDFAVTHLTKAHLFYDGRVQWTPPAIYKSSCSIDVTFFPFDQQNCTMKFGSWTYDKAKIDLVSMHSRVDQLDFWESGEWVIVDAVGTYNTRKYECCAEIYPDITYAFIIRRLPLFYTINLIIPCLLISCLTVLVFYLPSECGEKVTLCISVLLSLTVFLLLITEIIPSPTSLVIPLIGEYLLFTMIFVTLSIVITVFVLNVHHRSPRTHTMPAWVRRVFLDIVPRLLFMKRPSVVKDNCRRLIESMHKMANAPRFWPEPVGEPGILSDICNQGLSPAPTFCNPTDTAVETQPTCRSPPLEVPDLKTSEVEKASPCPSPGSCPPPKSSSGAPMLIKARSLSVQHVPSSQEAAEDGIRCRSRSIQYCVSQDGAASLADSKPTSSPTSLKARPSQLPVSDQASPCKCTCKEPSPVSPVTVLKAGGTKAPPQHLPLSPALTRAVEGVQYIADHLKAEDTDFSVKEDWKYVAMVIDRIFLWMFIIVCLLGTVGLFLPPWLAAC
Sequence (P12390 whole entry): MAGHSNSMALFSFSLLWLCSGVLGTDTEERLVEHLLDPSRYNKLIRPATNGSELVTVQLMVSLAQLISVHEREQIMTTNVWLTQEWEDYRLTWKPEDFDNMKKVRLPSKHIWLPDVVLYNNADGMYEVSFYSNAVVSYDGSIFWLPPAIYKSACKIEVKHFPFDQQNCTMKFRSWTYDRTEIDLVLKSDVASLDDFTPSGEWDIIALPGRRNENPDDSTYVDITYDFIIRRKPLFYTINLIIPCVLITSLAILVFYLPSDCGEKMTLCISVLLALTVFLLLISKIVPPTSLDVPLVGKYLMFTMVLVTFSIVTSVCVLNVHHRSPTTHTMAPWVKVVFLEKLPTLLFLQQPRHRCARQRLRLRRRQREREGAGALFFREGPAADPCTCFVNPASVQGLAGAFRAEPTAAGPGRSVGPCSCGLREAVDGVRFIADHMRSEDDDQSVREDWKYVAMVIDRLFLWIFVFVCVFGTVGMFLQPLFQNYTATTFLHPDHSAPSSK
The figures below represent log10 of Ki, where Ki is stated in nM.

Example entries begin here.
INSERT INTO results (compound, endpoint_result) VALUES
  ('COc1ccccc1OC[C@@H]1CCCN1C', 3.97),
  ('COc1ccccc1OC[C@@H]1CCCN1', 4.73),
  ('CN1CCC[C@H]1COc1cncc(O)c1', 0.57);

Prompt: Would you kindly share the measured log10 of Ki for CN1CCC[C@H]1COc1cccc(O)c1 ?
Response: 0.04

Prompt: Follow-up item: COc1ncccc1OC[C@@H]1CCCN1
Response: 3.95

Prompt: Consider next the compound C[C@@H](Oc1cccnc1)[C@@H]1CCCN1C (racemic) in the same way.
Response: 1.43

Prompt: Please give the result for CN1CC[C@H]1COc1ccccc1 too.
Response: 2.00

Prompt: Same read-out for C[C@H](Oc1cccnc1)[C@@H]1CCCN1C ?
Response: 2.94

Prompt: Try this compound too: COc1ccc(O)cc1OC[C@@H]1CCCN1C
Response: 1.28

Prompt: What do we get for COc1ccc(O)cc1OC[C@@H]1CCCN1 ?
Response: 3.03

Prompt: Lookup Oc1cncc(OC[C@@H]2CCCN2)c1
Response: 0.40

Prompt: Similarly, Oc1cccc(OC[C@@H]2CCCN2)c1 ?
Response: 2.61

---

biological target: Neuronal acetylcholine receptor; alpha4/beta2 (Homo sapiens, UniProt P17787+P43681); experiment: Agonist activity at human alpha4beta2 nAChR expressed in rat GH4C1 cells assessed as induction of peak current amplitude at holding potential of -70 mV by whole-cell patch clamp assay
Sequence (P17787 whole entry): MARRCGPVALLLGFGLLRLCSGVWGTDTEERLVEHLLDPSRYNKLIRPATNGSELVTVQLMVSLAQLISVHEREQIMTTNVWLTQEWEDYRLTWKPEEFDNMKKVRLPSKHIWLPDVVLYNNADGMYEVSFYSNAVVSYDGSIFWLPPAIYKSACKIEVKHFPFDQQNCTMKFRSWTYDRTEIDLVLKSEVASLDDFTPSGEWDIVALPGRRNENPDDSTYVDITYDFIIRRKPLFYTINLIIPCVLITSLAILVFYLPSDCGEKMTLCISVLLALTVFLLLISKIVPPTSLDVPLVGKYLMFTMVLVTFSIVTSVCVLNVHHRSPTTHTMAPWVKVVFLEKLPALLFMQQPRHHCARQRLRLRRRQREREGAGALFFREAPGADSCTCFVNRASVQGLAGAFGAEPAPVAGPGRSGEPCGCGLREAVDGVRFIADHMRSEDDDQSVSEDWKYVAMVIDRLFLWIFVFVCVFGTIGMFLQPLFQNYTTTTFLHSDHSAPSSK
Sequence (P43681 whole entry): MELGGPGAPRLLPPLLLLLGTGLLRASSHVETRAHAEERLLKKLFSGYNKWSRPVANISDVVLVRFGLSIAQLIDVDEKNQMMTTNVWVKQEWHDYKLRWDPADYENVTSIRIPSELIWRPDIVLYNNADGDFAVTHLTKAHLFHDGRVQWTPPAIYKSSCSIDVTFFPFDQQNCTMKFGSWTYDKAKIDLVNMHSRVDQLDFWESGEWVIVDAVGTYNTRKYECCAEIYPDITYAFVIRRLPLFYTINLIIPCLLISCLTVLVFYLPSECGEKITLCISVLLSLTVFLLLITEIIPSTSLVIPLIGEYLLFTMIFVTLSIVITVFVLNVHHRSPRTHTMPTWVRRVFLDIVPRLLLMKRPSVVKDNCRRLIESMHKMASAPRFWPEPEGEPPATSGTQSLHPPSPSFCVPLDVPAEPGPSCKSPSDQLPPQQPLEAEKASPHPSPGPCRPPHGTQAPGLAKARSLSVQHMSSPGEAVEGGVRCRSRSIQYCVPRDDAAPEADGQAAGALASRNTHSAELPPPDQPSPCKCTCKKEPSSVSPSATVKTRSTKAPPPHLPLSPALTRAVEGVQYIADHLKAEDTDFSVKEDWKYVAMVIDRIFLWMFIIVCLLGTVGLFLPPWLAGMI
Reported EC50 values for a set of compounds
Return type: number; implicit unit nM.

Look over these answered cases.
INSERT INTO measurements (compound, measurement_target, attribute_measured, endpoint_result) VALUES
  ('CN1CCC[C@H]1COc1cccc(O)c1', 'Neuronal acetylcholine receptor; alpha4/beta2 (Homo sapiens, UniProt P17787+P43681)', 'EC50', 4400),
  ('OCCCCC#Cc1cncc(OC[C@@H]2CCN2)c1', 'Neuronal acetylcholine receptor; alpha4/beta2 (Homo sapiens, UniProt P17787+P43681)', 'EC50', 0.27),
  ('CN1CCC[C@H]1[C@@H]1COc2ccc(O)cc2O1', 'Neuronal acetylcholine receptor; alpha4/beta2 (Homo sapiens, UniProt P17787+P43681)', 'EC50', 300),
  ('CN1CCC[C@H]1COc1cncc(O)c1', 'Neuronal acetylcholine receptor; alpha4/beta2 (Homo sapiens, UniProt P17787+P43681)', 'EC50', 73000);

Now consider the entry below.
Prompt: Returns the measured EC50 for the input compound. Input: C[C@@H](Oc1cccnc1)[C@@H]1CCCN1C (racemic)
Response: 13

---

molecular target: Neuronal acetylcholine receptor subunit alpha-7 (Rattus norvegicus); experiment: Displacement of [125I]]-alpha-bungarotoxin from alpha7 nAChR in rat hippocampus membranes by liquid scintillation counting method
Sequence (Q05941 whole entry): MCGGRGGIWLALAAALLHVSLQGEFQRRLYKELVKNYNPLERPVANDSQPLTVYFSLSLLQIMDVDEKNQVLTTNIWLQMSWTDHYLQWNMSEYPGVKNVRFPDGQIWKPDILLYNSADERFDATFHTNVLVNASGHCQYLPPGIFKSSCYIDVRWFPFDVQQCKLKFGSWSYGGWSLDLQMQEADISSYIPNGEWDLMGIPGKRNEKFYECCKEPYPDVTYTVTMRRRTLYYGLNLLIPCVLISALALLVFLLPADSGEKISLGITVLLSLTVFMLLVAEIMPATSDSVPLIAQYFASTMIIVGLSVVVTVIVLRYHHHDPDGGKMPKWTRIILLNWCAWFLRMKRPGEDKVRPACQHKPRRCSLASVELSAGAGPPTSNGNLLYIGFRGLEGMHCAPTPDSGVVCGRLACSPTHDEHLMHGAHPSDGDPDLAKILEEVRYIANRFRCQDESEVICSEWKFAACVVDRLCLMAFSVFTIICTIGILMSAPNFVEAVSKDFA
attribute.measured: log10 Ki (log10 of the value in nM)
Log scale reminder: Ki in nM, then log10 taken.

INSERT INTO measurements (compound, measurement_target, attribute_measured, endpoint_result) VALUES
  ('CN1CCC[C@H]1COc1cncc(O)c1', 'Neuronal acetylcholine receptor subunit alpha-7 (Rattus norvegicus)', 'log10 Ki', 2.51),
  ('COc1ccncc1OC[C@@H]1CCCN1', 'Neuronal acetylcholine receptor subunit alpha-7 (Rattus norvegicus)', 'log10 Ki', 4.33),
  ('C[C@@H](Oc1cccc(O)c1)[C@@H]1CCCN1C (racemic)', 'Neuronal acetylcholine receptor subunit alpha-7 (Rattus norvegicus)', 'log10 Ki', 1.76),
  ('COc1ccncc1OC[C@@H]1CCCN1C', 'Neuronal acetylcholine receptor subunit alpha-7 (Rattus norvegicus)', 'log10 Ki', 3.97),
  ('COc1ccc(O)cc1OC[C@@H]1CCCN1C', 'Neuronal acetylcholine receptor subunit alpha-7 (Rattus norvegicus)', 'log10 Ki', 3.06),
  ('CN1CC[C@H]1COc1cccc(O)c1', 'Neuronal acetylcholine receptor subunit alpha-7 (Rattus norvegicus)', 'log10 Ki', 1.46),
  ('Oc1cccc(OC[C@@H]2CCCN2)c1', 'Neuronal acetylcholine receptor subunit alpha-7 (Rattus norvegicus)', 'log10 Ki', 2.33),
  ('C[C@H](Oc1cccnc1)[C@@H]1CCCN1C', 'Neuronal acetylcholine receptor subunit alpha-7 (Rattus norvegicus)', 'log10 Ki', 3.79);

// moving on: another record for log10 Ki
Prompt: Look up log10 Ki for this compound: C[C@@H](Oc1ccccc1)[C@@H]1CCCN1C (racemic)
Response: 4.18

---

biological target: Neuronal acetylcholine receptor; alpha3/beta4 (Homo sapiens, UniProt P30926+P32297); assay: Displacement of [3H]epibatidine from human alpha3beta4 nAChR expressed in HEK293 cell membranes by liquid scintillation counting method
attribute.measured: pKi
Scale note: pKi = -log10(concentration in M).

Prompt: Fill blank: measured pKi of the molecule Oc1cccc(OC[C@@H]2CCCN2)c1 is ____.
Response: 5.42

Prompt: Lookup COc1ccncc1OC[C@@H]1CCCN1
Response: 5.54

Prompt: Would you kindly repeat that for COc1ccc(O)cc1OC[C@@H]1CCCN1 ?
Response: 5.11

Prompt: Record: COc1ccccc1OC[C@@H]1CCCN1
Response: 5.44

Prompt: Next molecule up: C[C@@H](Oc1cccc(O)c1)[C@@H]1CCCN1C (racemic)
Response: 6.59

Prompt: // query: COc1ncccc1OC[C@@H]1CCCN1C
Response: 6.10

Prompt: // same read-out, input: C[C@H](Oc1cccc(O)c1)[C@@H]1CCCN1C
Response: 6.12

Prompt: Likewise for C[C@@H](Oc1cccnc1)[C@@H]1CCCN1C (racemic) ?
Response: 5.30

Prompt: What do you get for CC(Oc1ccccc1)C1CCCN1C (mixture of isomers) ?
Response: 5.85

Prompt: Now the molecule Oc1cccc(OC[C@@H]2CCN2)c1
Response: 7.40

Prompt: Moving on to COc1ccncc1OC[C@@H]1CCCN1C
Response: 5.68

Prompt: Can you check COc1ccc(O)cc1OC[C@@H]1CCCN1C next?
Response: 6.57

Prompt: Please answer likewise for Oc1cncc(OC[C@@H]2CCCN2)c1
Response: 7.00

---

Imax listing for selected compounds.
biological target: Neuronal acetylcholine receptor; alpha3/beta4 (Homo sapiens, UniProt P30926+P32297); assay: Agonist activity at human alpha3beta4 nAChR expressed in rat GH4C1 cells assessed as induction of peak current amplitude at holding potential of -70 mV by whole-cell patch clamp assay relative to acetylcholine; assay type: cell-based; settings: GH4-C1
Respond numerically; units are % and should not be typed.

INSERT INTO assay_data (compound, endpoint_result) VALUES
  ('CN1CCC[C@H]1[C@@H]1COc2ccc(O)cc2O1', 28),
  ('COc1ccc(O)cc1OC[C@@H]1CCCN1C', 7),
  ('C[C@@H](Oc1cccnc1)[C@@H]1CCCN1C (racemic)', 7);

Prompt: What Imax value was documented for this compound, OCCCCC#Cc1cncc(OC[C@@H]2CCN2)c1 ?
Response: 24

Prompt: Now consider CN1CCC[C@H]1COc1cncc(O)c1 and answer again.
Response: 15

Prompt: Then what about the compound CN1CCC[C@H]1COc1cccc(O)c1 ?
Response: 85

Prompt: Do the same for CN1CC[C@H]1COc1cccc(O)c1 please
Response: 57

---

target: Neuronal acetylcholine receptor; alpha3/beta4 (Homo sapiens, UniProt P30926+P32297); test: Displacement of [3H]epibatidine from human alpha3beta4 nAChR expressed in HEK293 cell membranes by liquid scintillation counting method
pKi: −log10 of the molar value.
Label Satisfied when pKi >= 6; otherwise Not satisfied.

INSERT INTO measurements (mol, group_label) VALUES
  ('CN1CC[C@H]1COc1cccc(O)c1', 'Satisfied');

Prompt: Tell me whether pKi is at least 6 here: COc1ncccc1OC[C@@H]1CCCN1
Response: Not satisfied

Prompt: Check C[C@H](Oc1cccnc1)[C@@H]1CCCN1C too.
Response: Not satisfied

Prompt: Cool, now CN1CCC[C@H]1COc1cccc(O)c1
Response: Satisfied

Prompt: Please give the result for CN1CCC[C@H]1COc1cncc(O)c1 too.
Response: Satisfied
